# measured_on: Cytochrome P450 1A2 (Homo sapiens) (UniProt P05177)
# Sequence (P05177 whole entry, looked up): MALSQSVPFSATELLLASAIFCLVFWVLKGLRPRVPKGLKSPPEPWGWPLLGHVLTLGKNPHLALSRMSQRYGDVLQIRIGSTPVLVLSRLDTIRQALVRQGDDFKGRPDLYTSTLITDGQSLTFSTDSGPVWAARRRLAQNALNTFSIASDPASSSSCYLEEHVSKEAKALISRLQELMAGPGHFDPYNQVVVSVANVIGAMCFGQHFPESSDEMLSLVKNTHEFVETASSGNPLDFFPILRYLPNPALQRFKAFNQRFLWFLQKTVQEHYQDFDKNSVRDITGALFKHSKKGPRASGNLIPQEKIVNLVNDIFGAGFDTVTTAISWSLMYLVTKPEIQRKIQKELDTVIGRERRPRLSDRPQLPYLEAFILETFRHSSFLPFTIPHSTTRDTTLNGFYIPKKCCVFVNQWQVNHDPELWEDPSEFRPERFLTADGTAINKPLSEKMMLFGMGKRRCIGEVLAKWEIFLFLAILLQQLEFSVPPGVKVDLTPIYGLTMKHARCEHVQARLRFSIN
# protocol_description: Cytochrome panel assay with activity outcomes
# test_conditions: recombinant CYP, pro-luciferin dealkylation, luminescence, p450-cyp1a2; series mostly up to 57.1 µM
In all, about 16,000 compounds went through this assay and about 5,700 (36%) were called active. Inconclusive results (about 24%) are left out. Calls come from the whole dose curve; as a rule, active = well fitted curve in the direction sought with a large enough effect; inconclusive = small, poorly fitted or top-dose-only effect, or effect the other way; inactive = no such curve, though single readings can be large or run the other way. The list shows a part of the results.
Could you please pick one outcome from this set? active, inactive

>>> assigned_category("COc1ccc(NC(=O)C2CCN(C(=O)c3cccs3)CC2)c(OC)c1")
"inactive"

Just curious, what result did `COc1ccc2oc(=O)c(NC(=O)C3CCCCC3)cc2c1` get here?
active

Per the assay record, what outcome was assigned to CCOC(=O)C(NC(C)=O)C(=O)O (centres undefined) ?
inactive

I'd appreciate the recorded outcome for `CCc1cccc2c(C=C(C#N)C#N)cn(CC(=O)N3CCCCC3)c12` from this test.
inactive

----------
# measured_on: Cytochrome P450 1A2 (Homo sapiens) (UniProt P05177)
# protocol_description: Cytochrome panel assay with activity outcomes
# test_conditions: recombinant CYP, pro-luciferin dealkylation, luminescence, p450-cyp1a2; series mostly up to 57.1 µM
In all, about 16,000 compounds went through this assay and about 5,700 (36%) were called active. About 24% were inconclusive and are not listed. Some of the results follow.
outcome_measure: AC50

>>> measured("COc1ccc2[nH]cc(CCNc3nc(-c4cccnc4)nc4ccccc34)c2c1")
"501 nM (active)"

The reported value for `Cc1cccc2c1OCC/C2=N\NC(=O)COc1ccccc1` in terms of AC50 is 2510 nM (active)

Form: compound = `Cc1cccc2c1OCC/C2=N\NC(=O)COc1ccccc1Cl` ; AC50 = 891 nM (active)

----------
Recorded AC50 values for a group of compounds are listed next.
# measured_on: Cytochrome P450 1A2 (Homo sapiens)
# protocol_description: Cytochrome panel assay with activity outcomes
# test_conditions: recombinant CYP, pro-luciferin dealkylation, luminescence, p450-cyp1a2; series mostly up to 57.1 µM
About 5,700 (36%) of roughly 16,000 compounds were called active. Another 24% or so got no clear call; they are omitted. The list shows a part of the results.

>>> measured("Cc1cc(C)c2c(SCc3ccc(Cl)cc3Cl)nc(N)nc2n1")
"3.16 µM (active)"
>>> measured("Cc1[nH]nc2nc(SCC(=O)NCC3CCCO3)n(-c3ccc(Br)cc3)c(=N)c12 (stereo not drawn)")
"10 µM (active)"
>>> measured("C#CCSc1n[nH]c(-c2ccco2)n1")
"2 µM (active)"
>>> measured("COc1ccc(C(C)(C)C)cc1NC(=O)c1cncc(Br)c1")
"1 µM (active)"
>>> measured("N#CC1=C(N)OC2=C(CC/C2=C\\c2ccccc2)C1c1ccccc1 (stereo not drawn)")
"2.51 µM (active)"

# AC50 of CCCC1C(=O)N(c2ccccc2)C1c1ccccc1 (stereo not drawn) = 12.6 µM (active)

compound O=C1C(Cc2ccccc2)C(c2ccccc2)N1c1ccccc1 (stereo not drawn) , AC50 observed: 5.01 µM (active)

----------
# measured_on: Cytochrome P450 1A2 (Homo sapiens) (UniProt P05177)
# protocol_description: Cytochrome panel assay with activity outcomes
# test_conditions: recombinant CYP, pro-luciferin dealkylation, luminescence, p450-cyp1a2; series mostly up to 57.1 µM
The whole screen tested about 16,000 compounds, of which about 5,700 (36%) were called active. Another 24% or so got no clear call; they are omitted. Calls follow the shape of the dose curve; as a rule, active = well fitted curve in the direction sought with a large enough effect; inconclusive = small, poorly fitted or top-dose-only effect, or effect the other way; inactive = no such curve, though single readings can be large or run the other way. Some of the results follow.
The categories you may choose from are True (active), False (inactive)

Some solved entries appear below for comparison.
>>> assigned_category("O=C(c1ccccc1)c1cc(F)c(N2CCOCC2)cc1Cl")
"True"
>>> assigned_category("CC(=O)[C@@]1(O)CC[C@H]2[C@H]3C[C@@H](C)C4=CC(=O)C=C[C@]4(C)[C@@]3(F)[C@@H](O)C[C@]21C")
"False"
>>> assigned_category("Cc1nc(SCC(=O)c2cc3ccccc3oc2=O)c(C#N)c(C)c1C(=O)Nc1ccccc1")
"False"
>>> assigned_category("c1ccc(Nc2ncnc3ccc(-c4ccoc4)cc23)cc1")
"True"
>>> assigned_category("Fc1ccc(Nc2ncnc3ccc(-c4ccoc4)cc23)cc1")
"True"

Please share the test call associated with `CS(=O)(=O)Nc1cccc(-c2cc(NCc3cccs3)ncn2)c1` .
True

Lab log entry: `N[C@@H](CO)C(=O)O` — outcome as called in the assay?
False

For `Cn1c(=NC(=O)CCl)sc2ccccc21` , which call appears in the assay record?
True

Tell me the assay call for `Cc1cnnn1-c1ccc(C(=O)CCl)cc1` please.
True

----------
# measured_on: Cytochrome P450 1A2 (Homo sapiens) (UniProt P05177)
# protocol_description: Cytochrome panel assay with activity outcomes
# test_conditions: recombinant CYP, pro-luciferin dealkylation, luminescence, p450-cyp1a2; series mostly up to 57.1 µM
Screen size: about 16,000 compounds; about 5,700 (36%) were called active. Inconclusive results (about 24%) are left out. Calls follow the shape of the dose curve; as a rule, active = well fitted curve in the direction sought with a large enough effect; inconclusive = small, poorly fitted or top-dose-only effect, or effect the other way; inactive = no such curve, though single readings can be large or run the other way. The list shows a part of the results.
Answer with one of the outcomes active, inactive

Each molecule tested received a call. Report the one for `CC1CCN(CCc2nc3cc(NC(=O)NC4CCCCC4)ccc3n2C)CC1` .
inactive

Given `Cc1ccc(NNS(=O)(=O)c2ccc(C)cc2)cc1` , state the outcome it received in this test.
active

Please indicate how the test categorized `Cc1ccc(-c2nn3c(C)nnc3c3ccccc23)cc1S(=O)(=O)NCc1ccccc1` .
inactive

Called result for `Cc1ccccc1CSc1nnc(-c2cccs2)n1Cc1ccco1`
active

Hi team, can someone confirm the assay call for `CCOC(=O)Nc1ccc(S(=O)(=O)NCc2ccccc2)cc1` ?
inactive

Per the records of this test, what outcome belongs to `CC(=O)c1cccc(NC(=O)c2csc(-n3nc(C)cc3C(F)(F)F)n2)c1` ?
active

How was `O=c1cc(CSc2ccccc2)[nH]c(=S)[nH]1` classified in this test?
inactive

----------
# measured_on: Cytochrome P450 1A2 (Homo sapiens) (UniProt P05177)
# protocol_description: Cytochrome panel assay with activity outcomes; for activity, negative = inhibition: % is set by controls: 0 for no effect and ±100 for the full control effect
# test_conditions: recombinant CYP, pro-luciferin dealkylation, luminescence, p450-cyp1a2; series mostly up to 57.1 µM
# Protocol: The P450 gene superfamily is involved in the metabolism and clearance of xenobiotics. This assay used various human CYP P450 isozymes to measure the dealkylation of various pro-luciferin substrates to luciferin. The luciferin is then measured by luminescence after the addition of a luciferase detection reagent. […] Inhibitors and some substrates limit the production of luciferin, and decrease measured luminescence. […] 8, Detection, 1 sec, ViewLux luminescent read […]
Hit rate of the full screen: of about 16,000 compounds, about 5,700 (36%) were called active. Not shown: some 24% with an inconclusive outcome. The list shows a part of the results.
outcome_measure: activity, negative = inhibition

>>> measured("CC(=O)Nc1ccc(Cc2ccc3[nH]c(=O)cc(C)c3c2)cc1")
"-17% [at 11.4 µM] (inactive)"
>>> measured("C[C@]1(c2ccccc2)O[C@@H]2C[C@@H]3[C@@H]4CCC5=CC(=O)C=C[C@@]5(C)[C@]4(F)[C@H](O)C[C@]3(C)[C@@]2(C(=O)CO)O1")
"-16.4% [at 2.29 µM] (inactive)"

GET /value?item= `C[C@](O)(c1ccccc1)c1nccc2ccccc12` &field=activity, negative = inhibition returns -17.4% [at 11.4 µM] (inactive)

// activity, negative = inhibition lookup, compound = `COc1cccc([C@H](O)Cn2cc(-c3cccc(CON=C(C)C)c3)nn2)c1` , result: -3.64% [at 11.4 µM] (inactive)

Lookup result for `Cc1sc2ccccc2[n+]1CCC(=O)O` ; measured activity, negative = inhibition: -3.71% [at 11.4 µM] (inactive)

The compound `COC(=O)C/C=C1\c2ccccc2[C@H](OC)[C@H]1C` showed activity, negative = inhibition equal to -6.47% [at 11.4 µM] (inactive)

----------
# measured_on: Cytochrome P450 1A2 (Homo sapiens)
# protocol_description: Cytochrome panel assay with activity outcomes
# test_conditions: recombinant CYP, pro-luciferin dealkylation, luminescence, p450-cyp1a2; series mostly up to 57.1 µM
# Procedure: The P450 gene superfamily is involved in the metabolism and clearance of xenobiotics. This assay used various human CYP P450 isozymes to measure the dealkylation of various pro-luciferin substrates to luciferin. The luciferin is then measured by luminescence after the addition of a luciferase detection reagent. […] Inhibitors and some substrates limit the production of luciferin, and decrease measured luminescence. […] 8, Detection, 1 sec, ViewLux luminescent read […]
About 5,700 (36%) of roughly 16,000 compounds were called active. Another 24% or so got no clear call; they are omitted. Calls come from the whole dose curve; as a rule, active = well fitted curve in the direction sought with a large enough effect; inconclusive = small, poorly fitted or top-dose-only effect, or effect the other way; inactive = no such curve, though single readings can be large or run the other way. Some of the results follow.
Valid outcomes are listed here; reply with one: TRUE (active), FALSE (inactive)

Previously resolved entries follow.
>>> assigned_category("COc1ccccc1-c1ccc2ncnc(NCc3ccccc3)c2c1")
"TRUE"
>>> assigned_category("CC(=O)c1ccc(-n2c(CCC(=O)O)ccc2-c2cccs2)cc1")
"TRUE"

Record request — test call for COc1ccc(NC(=O)C2CC(=O)NC3=C2C(=O)CC(C)(C)C3)cc1 (configuration not stated)
FALSE

Please share the test call associated with CC(=O)N1CCN(S(=O)(=O)c2ccccc2)C1c1ccccc1 (configuration not stated) .
FALSE

Recorded test call requested for `COc1ccc(OC)c(CNC(=O)CCNC(=O)Cn2ccc3ccccc3c2=O)c1`
FALSE

Test call for this compound, please: `COc1ccccc1-c1ccc2ncnc(NCc3cccnc3)c2c1`
TRUE
